- MEASURED TARGET: T1, Human ACVR2A (human, UniProt P27037 20-135, limits assumed); note: test concentration or dose not given here
- T1 construct: also called activin receptor, type II A
- T1 sequence (P27037 20-135 limits assumed): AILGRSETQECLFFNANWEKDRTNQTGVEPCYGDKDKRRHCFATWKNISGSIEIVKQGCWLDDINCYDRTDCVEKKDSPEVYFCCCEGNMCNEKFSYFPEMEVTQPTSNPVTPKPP
- METHOD SUMMARY: ELISA
MEASURE: optical density (OD)
Write the value in OD as a bare number.

In the examples that follow, each entry is paired with its recorded optical density.
BINDER | UNITS OF MEASURE | optical density
365_C04 (antibody, V domains shown, VH/VL only) VH: EVQLLESGGGLVQPGGSLRLSCAASGFTFDSYSMNWVRQAPGKGLEWVANINYNGGYKGYADSVKGRFTISRDNSKNTLYLQMNSLRAEDTAVYYCARGATWHDTHLDYWGQGTLVTVSS VL: DIQMTQSPSSLSASVGDRVTITCRASQSILTYLNWYQQKPGKAPKLVIYAATSLASGVPSRFSGSGSGTDFTLTISSLQPEDFATYYCQQSYDTPLTFGGGTKVEIK | OD | 2.26
366_D04 (antibody, V domains shown, VH/VL only) VH: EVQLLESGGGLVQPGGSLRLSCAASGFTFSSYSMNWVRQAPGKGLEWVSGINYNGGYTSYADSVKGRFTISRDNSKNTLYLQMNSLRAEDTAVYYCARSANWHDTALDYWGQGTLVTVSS VL: DIQMTQSPSSLSASVGDRVTITCRASQSISSYVNWYQQKPGKAPKLLIYATTSRASGVPSRFSGSGSGTDFTLTISSLQPEDFATYYCQQSYETPLTFGGGTKVEIK | OD | 2.08

Let's switch to this binder now.
Summary for this binder, 370_F02 (antibody, V domains shown, VH/VL only) VH: EVQLLESGGGLVQPGGSLRLSCAASGFTFDSYGMNWVRQAPGKGLEWVANINYNGGYTGYADSVKGRFTISRDNSKNTLYLQMNSLRAEDTAVYYCARGATWHDTHLDYWGQGTLVTVSS VL: DIQMTQSPSSLSASVGDRVTITCRASQSILSYLNWYQQKPGKAPKLLIYAVTSRHSGVPSRFSGSGSGTDFTLTISSLQPEDFATYYCQQSYDSPLTFGGGTKVEIK : optical density is 2.68
